Source: patent US20020037311A1

assay: In vitro skin flux, adhesive matrix systems, modified Franz diffusion cells; format: in vitro ADME, human; conditions: Example 1 matrix TSR 58 adhesive/triacetin/CP-336,156 84/10/6% w/w; Skin 1F; 4 diffusion cells
Reported Property: Average Daily Flux of CP-336,156 over 7 Days (µg/cm²/day)
Numeric only. Scale: µg/cm²/day

Consider the compound Oc1ccc2c(c1)CC[C@H](c1ccccc1)[C@@H]2c1ccc(OCCN2CCCC2)cc1 [CP-336,156, lasofoxifene] and give its measured Average Daily Flux of CP-336,156 over 7 Days.
5.1

* * *

test: In vitro skin flux, adhesive matrix systems, modified Franz diffusion cells; type: in vitro ADME, human; conditions: Example 1 matrix TSR 58 adhesive/triacetin/CP-336,156 84/10/6% w/w; Skin 1C; 8 diffusion cells
Reported Property: Average Daily Flux of CP-336,156 over 7 Days (µg/cm²/day)
# unit: µg/cm²/day | format: bare number

Requested read-out: Average Daily Flux of CP-336,156 over 7 Days. Entry: Oc1ccc2c(c1)CC[C@H](c1ccccc1)[C@@H]2c1ccc(OCCN2CCCC2)cc1 [CP-336,156, lasofoxifene]
9.2
